Quick reference for chromatographic logP among some compounds

# Compound, chromatographic logP
data = [
    ("Cc1nc2c(F)c(F)ccc2cc1Oc1ccccc1N1CC2(COC2)C1", 3.48),
    ("Cc1nc2c(F)c(F)ccc2cc1Cc1ccccc1C#CC1COC1", 3.66),
    ("O=Cc1ccccc1Nc1cnc2c(F)cccc2c1", 2.88),
    ("Cc1nc2c(F)c(F)ccc2cc1Oc1ccccc1C=O", 3.21),
    ("Cc1nc2c(F)c(F)ccc2cc1Cc1ccccc1Br", 4.26),
    ("Cc1nc2c(F)c(F)ccc2cc1Oc1ccccc1C1OCC1(C)C (centres unmarked)", 4.44),
    ("Cc1nc2c(F)c(F)ccc2cc1Oc1ccccc1C1COC1", 3.33),
    ("O=Cc1c(F)cccc1Oc1cnc2ccccc2c1", 2.43),
    ("Cc1nc2c(F)c(F)ccc2cc1Oc1cccc(F)c1C=O", 3.1),
    ("CC1(c2ccccc2CBr)COC1", 2.73),
    ("CC1(c2ccccc2CO)COC1 [XIV.01, [2-(3-methyloxetan-3-yl)phenyl]methanol]", 1.3),
    ("Cc1nc2c(F)c(F)ccc2cc1Oc1cccc(I)c1C(O)C(C)(C)CO (centres unmarked)", 3.57),
    ("Cc1nc2c(F)c(F)ccc2cc1Cc1ccccc1C1(C)COC1", 3.47),
    ("Fc1cccc(Br)c1CN1CC(F)(F)C1", 1.89),
    ("Cc1nc2c(F)c(F)ccc2cc1Oc1ccccc1C(O)C(C)(C)CO (centres unmarked)", 2.96),
    ("Cc1nc2ccccc2cc1Oc1cccc(F)c1C=O", 2.32),
    ("O=[N+]([O-])c1cccc(F)c1OC1COC1", 2),
    ("Cc1nc2c(F)c(F)ccc2cc1Nc1cccc(F)c1CN1CC(F)(F)C1", 4.33),
    ("Nc1cccc(F)c1OC1COC1", 1.32),
    ("Cc1nc2c(F)c(F)ccc2cc1Nc1cccc(F)c1OC1COC1", 3.28),
]

Values from patent US20210378240A1
